assay: Pharmacokinetic experiment in monkeys; type: in vivo, cynomolgus monkeys; details: male, cynomolgus monkey, plasma, po; monkeys, i.g. (5 mg/kg)
Please respond with reported bioavailability for every item in the list.
Answer with the figure and its unit, nothing else.

For the compound C#CCC1CCN(Cc2c(OC)cc(C)c3[nH]ccc23)[C@H](c2ccc(C(=O)O)cc2)C1 (some centres unmarked) [Compound 13] , give its reported bioavailability.
70.5%

Fill in reported bioavailability for this entry: [2H]C([2H])([2H])Oc1cc(C)c2[nH]ccc2c1CN1CC[C@H](C2CC2)C[C@H]1c1ccc(C(=O)O)cc1 [Trifluoroacetate of compound 7 (diastereomer 1)]
98.3%

----------
For each of the molecules below, state its bioavailability.
assay: Pharmacokinetic test of dogs; type: in vivo; conditions: male, beagle, dog, plasma, po, i.g. (5 mg/kg)
Give the value in % but do not write % after it.

Dear colleague, please send me the reported bioavailability for C#C[C@H]1CCN(Cc2c(OC)cc(C)c3[nH]ccc23)[C@H](c2ccc(C(=O)O)cc2)C1 [Compound 10 (diastereomer 1)] when you can.
56.2

Item COc1cc(C)c2[nH]ccc2c1CN1CC[C@@H](C2CC2)C[C@H]1c1ccc(C(=O)O)cc1 [Trifluoroacetate of compound 5 (diastereomer 1)] : provide bioavailability
62.6

Tell us which bioavailability value is on record for [2H]C([2H])([2H])Oc1cc(C)c2[nH]ccc2c1CN1CC[C@H](C2CC2)C[C@H]1c1ccc(C(=O)O)cc1 [Trifluoroacetate of compound 7 (diastereomer 1)]
75.5
